Origin of measurements: paper PMC4336329

# targetEntity: human ether-à-go-go-related gene (hERG) potassium channel (human);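 note: peak tail current of the secondary pulse compared with the same well before compound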
# Sequence (Q12809 whole entry, looked up): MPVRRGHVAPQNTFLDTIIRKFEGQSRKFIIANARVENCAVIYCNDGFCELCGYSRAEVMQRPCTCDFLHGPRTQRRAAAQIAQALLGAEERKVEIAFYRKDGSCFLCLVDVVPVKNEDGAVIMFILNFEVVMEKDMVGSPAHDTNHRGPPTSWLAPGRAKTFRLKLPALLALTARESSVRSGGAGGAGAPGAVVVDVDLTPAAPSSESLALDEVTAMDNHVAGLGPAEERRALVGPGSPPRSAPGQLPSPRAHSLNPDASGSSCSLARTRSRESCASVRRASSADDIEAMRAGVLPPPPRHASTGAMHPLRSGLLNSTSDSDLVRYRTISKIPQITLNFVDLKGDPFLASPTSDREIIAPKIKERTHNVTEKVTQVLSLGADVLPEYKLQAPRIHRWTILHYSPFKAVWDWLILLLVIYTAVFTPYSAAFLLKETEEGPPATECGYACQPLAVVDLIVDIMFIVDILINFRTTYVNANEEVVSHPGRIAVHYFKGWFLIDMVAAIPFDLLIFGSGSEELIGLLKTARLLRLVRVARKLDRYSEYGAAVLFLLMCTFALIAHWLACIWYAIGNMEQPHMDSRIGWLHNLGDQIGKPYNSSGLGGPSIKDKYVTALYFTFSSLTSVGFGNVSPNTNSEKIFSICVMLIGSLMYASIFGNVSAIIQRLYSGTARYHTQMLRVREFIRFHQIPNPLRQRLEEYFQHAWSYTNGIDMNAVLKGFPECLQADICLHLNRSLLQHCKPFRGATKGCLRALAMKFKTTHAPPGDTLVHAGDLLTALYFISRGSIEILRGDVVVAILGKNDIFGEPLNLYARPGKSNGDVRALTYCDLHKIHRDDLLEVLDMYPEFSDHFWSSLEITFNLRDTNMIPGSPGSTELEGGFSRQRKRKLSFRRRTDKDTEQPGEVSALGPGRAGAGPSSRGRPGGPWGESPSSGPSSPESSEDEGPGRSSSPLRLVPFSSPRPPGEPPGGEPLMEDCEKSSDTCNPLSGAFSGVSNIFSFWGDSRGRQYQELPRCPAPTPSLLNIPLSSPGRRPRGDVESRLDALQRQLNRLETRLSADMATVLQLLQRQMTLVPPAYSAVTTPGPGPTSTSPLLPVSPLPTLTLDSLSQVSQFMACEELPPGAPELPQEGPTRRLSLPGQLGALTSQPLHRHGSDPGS
# methodSummary: primary screen, population patch clamp on CHO cells stably expressing hERG; higher = less effect of the substance
In all, about 310,000 compounds went through this assay and about 14,000 (4.5%) showed an effect of 50% or more. The effect is printed as a negative number. The entries come from a sample that favours strong results as a whole.
reportedMetric: hERG current change (%, negative = inhibition) at 10uM (%)
Answers are plain numbers, in %.

Working through the 6 compounds below one at a time, give hERG current change (%, negative = inhibition) at 10uM for each.
1. O=C(CCc1nnc2ccc(NCc3ccco3)nn12)N1CCN(c2ccccc2F)CC1
2. O=C(CCc1nnc2ccc(NCc3ccco3)nn12)N1CCN(c2ccc(F)cc2)CC1
3. O=C(CCc1nnc2ccc(NCc3ccco3)nn12)Nc1ccc(F)cc1
4. CC(C)Cc1ccc(CN2CCCC(NC(=O)c3cccc(-n4cnnc4)c3)C2)cc1 (stereo not drawn)
5. COc1ccc(N2CSC3=C(C#N)C(c4ccc(OC)c(OC)c4)CC(=O)N3C2)c(OC)c1 (stereo not drawn)
6. Cc1ccc(NC(=O)CCc2nnc3ccc(NCc4ccco4)nn23)cc1

Return:
[-20.5, -46.7, -9.82, -81, -47.5, -2.39]
